test: Half life in dog plasma after administration of 0.25 mg/kg iv; assay type: ADME, organism-based, Canis lupus familiaris; design: dose 0.25 mg/kg, route intravenous

[
  {
    "smiles.text": "COCCN(C)CCOc1ccc2[nH]c(-c3cc4ccccc4nc3O)cc2c1",
    "half-life": "< 1 h"
  }
]

###

test: Plasma clearance in dogs; assay type: ADME, organism-based, Canis lupus familiaris; settings: dog
Each entry below lists one item and its recorded clearance value.

[
  {
    "compound": "O=C(c1ccc2[nH]c(-c3cc4ccccc4nc3O)cc2c1)N1CCNCC1",
    "relation": "=",
    "clearance (mL/min/kg)": 27
  },
  {
    "compound": "O=C(NC1CCNC1)c1ccc2[nH]c(-c3cc4ccccc4nc3O)cc2c1 (configuration not stated)",
    "relation": "=",
    "clearance (mL/min/kg)": 38
  },
  {
    "compound": "CN1CCN(S(=O)(=O)c2ccc3[nH]c(-c4cc5ccccc5nc4O)cc3c2)CC1",
    "relation": "=",
    "clearance (mL/min/kg)": 0.5
  },
  {
    "compound": "O=c1[nH]c2ccccc2cc1-c1cc2cc(S(=O)(=O)N3CCNCC3)ccc2[nH]1",
    "relation": "=",
    "clearance (mL/min/kg)": 3.5
  },
  {
    "compound": "O=c1[nH]c2ccccc2cc1-c1cc2cc(S(=O)(=O)NC3CCNC3)ccc2[nH]1 (configuration not stated)",
    "relation": "=",
    "clearance (mL/min/kg)": 0.4
  },
  {
    "compound": "Oc1nc2ccccc2cc1-c1cc2cc(OCCN3CCCCC3)ccc2[nH]1",
    "relation": ">",
    "clearance (mL/min/kg)": 50
  },
  {
    "compound": "CN1CCN(C(=O)c2ccc3[nH]c(-c4cc5ccccc5nc4O)cc3c2)CC1",
    "relation": "=",
    "clearance (mL/min/kg)": 19
  },
  {
    "compound": "NC1CCN(S(=O)(=O)c2ccc3[nH]c(-c4cc5ccccc5nc4O)cc3c2)C1 (configuration not stated)",
    "relation": "=",
    "clearance (mL/min/kg)": 11
  },
  {
    "compound": "O=C(O)C1CCN(CCCOc2ccc3[nH]c(-c4cc5ccccc5nc4O)cc3c2)CC1",
    "relation": "=",
    "clearance (mL/min/kg)": 7.7
  },
  {
    "compound": "COCCN(C)CCOc1ccc2[nH]c(-c3cc4ccccc4nc3O)cc2c1",
    "relation": ">",
    "clearance (mL/min/kg)": 50
  },
  {
    "compound": "CC(=O)N1CCN(CCOc2ccc3[nH]c(-c4cc5ccccc5nc4O)cc3c2)CC1",
    "relation": "=",
    "clearance (mL/min/kg)": 7.8
  },
  {
    "compound": "NC1CCN(C(=O)c2ccc3[nH]c(-c4cc5ccccc5nc4O)cc3c2)C1 (configuration not stated)",
    "relation": "=",
    "clearance (mL/min/kg)": 26
  }
]

###

assay: Plasma clearance in rat after administration of 2 mg/kg iv; type: ADME, organism-based; design: dose 2 mg/kg, route intravenous
measured.property: clearance (mL/min/kg)

[
  {
    "smiles.text": "CN1CCN(C(=O)c2ccc3[nH]c(-c4cc5ccccc5nc4O)cc3c2)CC1",
    "measured.property": "clearance",
    "result.value": 3.8
  },
  {
    "smiles.text": "COCCN(C)CCOc1ccc2[nH]c(-c3cc4ccccc4nc3O)cc2c1",
    "measured.property": "clearance",
    "result.value": 56
  },
  {
    "smiles.text": "CN1CCN(S(=O)(=O)c2ccc3[nH]c(-c4cc5ccccc5nc4O)cc3c2)CC1",
    "measured.property": "clearance",
    "result.value": 29
  }
]

###

test: Half life in dog plasma; format: ADME, organism-based, Canis lupus familiaris
Each entry below lists one item and its recorded half-life value.
measured.property: half-life (h)

[
  {
    "compound": "CC(=O)N1CCN(CCOc2ccc3[nH]c(-c4cc5ccccc5nc4O)cc3c2)CC1",
    "result.value": 2.2
  },
  {
    "compound": "NC1CCN(C(=O)c2ccc3[nH]c(-c4cc5ccccc5nc4O)cc3c2)C1 (stereo not drawn)",
    "result.value": 1.1
  },
  {
    "compound": "O=C(O)C1CCN(CCCOc2ccc3[nH]c(-c4cc5ccccc5nc4O)cc3c2)CC1",
    "result.value": 3.2
  }
]

###

assay: Partition coefficient (logP); type: physicochemical; conditions: octanol/water
Each entry below lists one item and its recorded logP value.

[
  {
    "smiles.text": "CC(=O)N1CCN(CCOc2ccc3[nH]c(-c4cc5ccccc5nc4O)cc3c2)CC1",
    "logP": 3.2
  },
  {
    "smiles.text": "COCCN(C)CCOc1ccc2[nH]c(-c3cc4ccccc4nc3O)cc2c1",
    "logP": 3.1
  },
  {
    "smiles.text": "Oc1nc2ccccc2cc1-c1cc2cc(OCCN3CCCCC3)ccc2[nH]1",
    "logP": 3.7
  }
]

Where these numbers come from: ChEMBL document CHEMBL1137936
